All figures here come from patent US5932574A.

target: EGF receptor tyrosine kinase (Homo sapiens); construct: Receptor tyrosine kinase was obtained in partially purified form from A-431 cells (derived from human vulval carcinoma); endogenous in cells; test: Inhibition of EGF receptor tyrosine kinase in vitro, Test (a); conditions: approximate
Sequence (P00533 25-1210): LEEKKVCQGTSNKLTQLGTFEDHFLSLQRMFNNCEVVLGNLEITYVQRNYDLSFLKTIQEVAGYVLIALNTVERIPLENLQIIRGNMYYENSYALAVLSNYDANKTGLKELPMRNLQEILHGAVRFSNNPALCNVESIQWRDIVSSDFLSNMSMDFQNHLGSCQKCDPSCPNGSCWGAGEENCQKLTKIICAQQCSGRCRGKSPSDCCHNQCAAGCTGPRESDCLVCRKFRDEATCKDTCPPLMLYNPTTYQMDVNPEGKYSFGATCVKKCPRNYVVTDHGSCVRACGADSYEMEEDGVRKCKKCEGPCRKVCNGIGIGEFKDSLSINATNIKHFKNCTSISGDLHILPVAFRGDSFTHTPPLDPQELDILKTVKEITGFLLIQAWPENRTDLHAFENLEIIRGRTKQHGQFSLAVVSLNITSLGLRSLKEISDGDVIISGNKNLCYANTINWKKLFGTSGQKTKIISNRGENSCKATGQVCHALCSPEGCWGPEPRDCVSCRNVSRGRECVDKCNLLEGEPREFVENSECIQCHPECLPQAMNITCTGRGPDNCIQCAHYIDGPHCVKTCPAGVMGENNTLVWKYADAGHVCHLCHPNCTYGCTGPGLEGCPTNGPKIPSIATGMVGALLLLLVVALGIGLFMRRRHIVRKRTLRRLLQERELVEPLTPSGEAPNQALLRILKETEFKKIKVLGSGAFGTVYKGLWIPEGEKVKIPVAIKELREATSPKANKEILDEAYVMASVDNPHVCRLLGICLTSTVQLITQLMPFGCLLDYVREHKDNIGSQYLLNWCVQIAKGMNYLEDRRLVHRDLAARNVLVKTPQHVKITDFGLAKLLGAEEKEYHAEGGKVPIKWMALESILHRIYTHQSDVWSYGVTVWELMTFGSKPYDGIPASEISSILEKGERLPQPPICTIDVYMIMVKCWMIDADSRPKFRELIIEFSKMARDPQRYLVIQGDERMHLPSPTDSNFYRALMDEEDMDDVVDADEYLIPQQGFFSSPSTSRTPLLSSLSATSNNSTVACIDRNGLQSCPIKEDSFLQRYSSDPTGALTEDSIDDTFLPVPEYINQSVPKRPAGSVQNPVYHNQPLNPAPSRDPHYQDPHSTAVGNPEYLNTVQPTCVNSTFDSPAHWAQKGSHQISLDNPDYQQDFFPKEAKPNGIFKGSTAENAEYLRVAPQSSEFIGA
pIC50: −log10 of the molar value.
readoutLabel: pIC50

input: For "CCN(CC)CCCOc1ccc2ncnc(Nc3ccc(F)c(Cl)c3)c2c1" , what is its reported pIC50?
output: ~8.52
